# Tested on: A431
# Procedure Details: whole-cell filipin (free cholesterol) integrated intensity, Z-score; higher = more cholesterol staining
# Measurement Conditions: compound concentration in added solution (µM; 5 µl added to 20 µl cells): 10; 18 h
Where a name gives a salt, the structure may show the parent alone.
Values of whole-cell filipin (z-score) greater than or equal to -0.4 map to label 1; values below map to label 0.

# Compound, Target Of Assay, Label
measured = [
    ("C[C@H](CCC(=O)O)[C@H]1CC[C@H]2[C@@H]3[C@@H](O)C[C@@H]4C[C@H](O)CC[C@]4(C)[C@H]3CC[C@]12C [Urosiol]", "A431", "label 0"),
    ("CN1CCN(CCCN2c3ccccc3Sc3ccc(S(=O)(=O)N(C)C)cc32)CC1 [Thioproperazine dimesylate]", "A431", "label 1"),
    ("COc1ccccc1OCC(O)CO (stereo not given) [Guaifenesin]", "A431", "label 0"),
    ("CC[C@H]1OC(=O)[C@H](C)[C@@H](O[C@H]2C[C@@](C)(OC)[C@@H](O)[C@H](C)O2)[C@H](C)[C@@H](O[C@@H]2O[C@H](C)C[C@H](N(C)C)[C@H]2O)[C@](C)(O)C[C@@H](C)C(=O)[C@H](C)[C@@H](O)[C@]1(C)O [Erythromycin]", "A431", "label 1"),
    ("N=C(N)N1CCc2ccccc2C1 [Debrisoquin sulfate]", "A431", "label 0"),
    ("CCN(CC)C(=O)N1CCN(C)CC1 [Diethylcarbamazine citrate]", "A431", "label 0"),
    ("c1ccc2[nH]c(-c3cscn3)nc2c1 [Tiabendazole]", "A431", "label 0"),
    ("CCCOc1cc(N)ccc1C(=O)OCCN(CC)CC [Propoxycaine hydrochloride]", "A431", "label 1"),
]

* * *

# System: HeLa MZ
# Procedure Details: filipin (cholesterol) integrated intensity within LBPA endosomes, Z-score; higher = more cholesterol in LBPA endosomes
# Measurement Conditions: compound concentration in added solution (µM; 5 µl added to 20 µl cells): 10; 18 h
Where a name gives a salt, the structure may show the parent alone.

# Compound, Target Of Assay, filipin (z-score)
measured = [
    ("Fc1ccc(C(c2ccc(F)cc2)N2CCN(C/C=C/c3ccccc3)CC2)cc1 [Flunarizine dihydrochloride]", "HeLa MZ", 0.163),
    ("Cc1cc2cc3c(C)cc(=O)oc3c(C)c2o1", "HeLa MZ", -0.476),
    ("CN(C(=O)C(Cl)Cl)c1ccc(OC(=O)c2ccco2)cc1 [Diloxanide furoate]", "HeLa MZ", -0.517),
    ("C=CC1=C(C(=O)O)N2C(=O)[C@@H](NC(=O)/C(=N\\O)c3csc(N)n3)[C@H]2SC1", "HeLa MZ", -0.46),
]

* * *

# Tested on: A431
# Procedure Details: LBPA endosome anti-LBPA integrated intensity (sum per cell), Z-score; higher = more LBPA staining
# Measurement Conditions: compound concentration in added solution (µM; 5 µl added to 20 µl cells): 10; 18 h
Where a name gives a salt, the structure may show the parent alone.
Measured Parameter: LBPA endosome anti-LBPA integrated intensity (z-score)

# Compound, Result Number
records = [
    ("CCn1cc(C(=O)O)c(=O)c2cnc(N3CCCC3)nc21", -0.472),
    ("CCN(CC)CCOC(=O)C(c1ccccc1)C1CCCCC1 (stereo unspecified) [Drofenine hydrochloride]", 1.02),
    ("C[C@]12CCC(=O)C=C1CC[C@@H]1[C@@H]2[C@@H](O)C[C@@]2(C)[C@H]1CC[C@]2(O)C(=O)CO [Hydrocortisone base]", -0.41),
    ("CCOC(=O)C1=C(C)NC(C)=C(C(=O)OC)C1c1cccc(Cl)c1Cl (stereo unspecified)", -0.574),
    ("C[C@]12C=CC(=O)C=C1CC[C@@H]1[C@@H]2[C@@H](O)C[C@@]2(C)[C@H]1CC[C@]2(O)C(=O)CO", -0.285),
    ("Clc1cnccn1", -0.346),
    ("O=C(O)c1ccccc1C(=O)Nc1ccc(S(=O)(=O)Nc2nccs2)cc1", -0.455),
    ("O=C(NCCN1CCOCC1)c1ccc(Cl)cc1 [Moclobemide]", -0.577),
    ("COc1ccc2c(c1)N(C[C@H](C)CN(C)C)c1ccccc1S2 [Methotrimeprazine maleat salt]", 2.94),
    ("CC(C)NCC(O)c1ccc2ccccc2c1 (stereo unspecified) [Pronethalol hydrochloride]", 0.244),
    ("O=C1C(O)=C(O)C(=O)C(O)=C1O [Tetrahydroxy-1,4-quinone monohydrate]", -0.376),
]

Attribution: the supplement of paper PMC6607015
